Each record here notes measured pIC50.
Molecular target: Recombinant His-tagged NAMPT (Homo sapiens)
Construct: His; host or cells: E. coli
Sequence (P43490 whole entry): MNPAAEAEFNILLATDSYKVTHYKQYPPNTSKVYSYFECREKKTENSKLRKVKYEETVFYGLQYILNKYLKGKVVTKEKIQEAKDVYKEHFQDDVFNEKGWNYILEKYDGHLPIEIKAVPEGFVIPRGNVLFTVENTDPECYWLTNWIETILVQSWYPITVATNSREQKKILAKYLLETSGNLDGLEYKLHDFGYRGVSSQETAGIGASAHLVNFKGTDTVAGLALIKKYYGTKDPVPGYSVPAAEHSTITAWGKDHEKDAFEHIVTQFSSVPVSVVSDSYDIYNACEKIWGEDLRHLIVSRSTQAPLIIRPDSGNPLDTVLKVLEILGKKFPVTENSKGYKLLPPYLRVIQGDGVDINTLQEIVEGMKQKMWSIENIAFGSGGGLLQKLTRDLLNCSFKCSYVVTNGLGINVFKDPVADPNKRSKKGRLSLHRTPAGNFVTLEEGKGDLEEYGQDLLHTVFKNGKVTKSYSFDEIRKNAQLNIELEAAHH
Assay: Biochemical inhibition assay: NAMPT enzymatic reaction, NMN quantified by mass spectrometry
Details: 33 nM NAMPT, 1 μM NAM, 100 μM PRPP, 2.5 mM ATP, 30 minutes at room temperature; read-out: Biochem IC50
By convention, pIC50 is the negative base-10 log of a molar concentration.

Illustrative cases are given below, each with its answer.
[[record]]
smiles = "O=C(NCCCCC1CCN(C(=O)c2ccc(F)cc2F)CC1)c1cc2ccncc2s1"
tested_system = "Recombinant His-tagged NAMPT (Homo sapiens)"
quantity_measured = "pIC50"
reported = 7.89

[[record]]
smiles = "Cc1ccc(C(=O)N2CCC(CCCCNC(=O)c3cc4cnccc4[nH]3)CC2)cc1F"
tested_system = "Recombinant His-tagged NAMPT (Homo sapiens)"
quantity_measured = "pIC50"
reported = 7.11

[[record]]
smiles = "COc1cc(Cl)ccc1C(=O)N1CCC(CCCCNC(=O)c2ccc3nccn3c2)CC1"
tested_system = "Recombinant His-tagged NAMPT (Homo sapiens)"
quantity_measured = "pIC50"
reported = 7.09


Data request: Fill in the blank: the reported pIC50 of O=C(NCCCCC1CCN(C(=O)c2ccc(F)cn2)CC1)c1ccc2nccn2c1 is ____.
Data returned: 7.13

Data request: Fill in the blank: the reported pIC50 of COc1ccc(C(=O)N2CCC(CCCCNC(=O)c3ccc4nccn4c3)CC2)cc1OC is ____.
Data returned: 7.41

Data request: Fill in the blank: the reported pIC50 of COc1cccc(C(=O)N2CCC(CCCCNC(=O)c3ccc4nccn4c3)CC2)c1OC is ____.
Data returned: 7.72

Data request: Fill in the blank: the reported pIC50 of O=C(NCCCCC1CCN(C(=O)c2ccc(Cl)c(Cl)c2)CC1)c1ccc2nccn2c1 is ____.
Data returned: 7.31
